Listed below: protein stability index values for each entry.
B1: EPB41L3 (parent)
chain: GSKFRYSGRTQAQTRRASALIDRP

Variants of: B1
Assay comment: protein stability index of a GFP-peptide fusion (GPS, HEK-293T) (PSI 1-6); higher = more stable;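 note: lentivirally expressed fusions sorted by FACS into six bins by GFP to DsRed ratio, PSI derived from sequencing read proportions per bin multiplied by bin number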
Experimental parameters: c terminus: a fixed tail appended
API doc: respond with a numeric literal and nothing else, no unit.

Consider the reported protein stability index for these variants:
>>> observed("Y6L")
3.15
>>> observed("G1M")
2.58
>>> observed("T10Q")
3.1
>>> observed("Q11G")
3.16
>>> observed("Q13H")
2.65

Task item: Param item = `T14M` ; retrieve measured protein stability index.
Reply: 2.29

Task item: And the next one, `R23C` ?
Reply: 2.89

Task item: And the next one, `Y6K` ?
Reply: 4.13

Task item: And the next one, `K3M` ?
Reply: 2.84

Task item: And the next one, `G8F` ?
Reply: 2.96

Task item: And the next one, `D22P` ?
Reply: 3.09
